target: HLA-A*02:01; experiment: IEDB peptide-MHC binding, purified MHC/competitive/radioactivity; bounds were set here for any values at or beyond the usual limits of such assays; conditions: source organism: Mycobacterium tuberculosis H37Rv
Measure: log10 IC50 (log10 of the value in µM)
In plain terms, each number is the log10 of measured IC50 in µM.

{"columns": ["Sequence Input", "Experimental System", "log10 IC50"],
 "data": [
  ["AYGSFVRTV", "HLA-A*02:01", 1.11],
  ["LTRAILIRV", "HLA-A*02:01", 1.72],
  ["GLWLSVAAV", "HLA-A*02:01", -0.96],
  ["RTVSLPVGA", "HLA-A*02:01", 0.40]
]}

Sample ELAAEPTEV — what was its log10 IC50?
0.26

Suppose we examine the sequence GSFVRTVSL ; what log10 IC50 value has been reported?
1.77

Field request: log10 IC50 | item: ALLALTRAI
-0.38

Given the sequence HVYAHQAQT , what is its reported log10 IC50?
0.74

Origin of values: the Immune Epitope Database (IEDB)
